Recorded values, source paper PMC9982066.

Could you please report measured pKd for the items listed next?
molecular target: Ehrlichia translocated factor-1 (Etf-1) (Ehrlichia chaffeensis, UniProt Q2GG12 1-380); assay: fluorescence polarisation; conditions: both partners purified
Starred links: 1 amine or outer side, 2 acyl side, 3 side chain; linkers in the order of their positions; H or OH if unused. Positions of bridges follow the written chain, without caps; N, C: chain ends. Non-standard residues stand in square brackets, D forms with d. Trimesoyl = O=C(c1cc(C(=O)[*:2])cc(C(=O)[*:3])c1)[*:1]; d2Nal = N[C@H](Cc1ccc2ccccc2c1)C(=O)O; Dap = NC[C@H](N)C(=O)O; βAla = NCCC(=O)O
Scale explanation: pKd corresponds to minus log10 of a concentration expressed in moles per litre.

pKd lookup needed for YHQ[dP]S[dL][Dap]F[d2Nal][dR]R[dR]A[Dap]-{βAla-βAla-Lys(FAM)} (linker N-7-14 via Trimesoyl; not fully specified (N-terminus)) [macrocyclic peptide B7-12, FAM-labelled] , thanks.
4.82

Query (binder): YAQ[dP]S[dL][Dap]F[d2Nal][dR]R[dR]R[Dap]-{βAla-βAla-Lys(FAM)} (linker N-7-14 via Trimesoyl; not fully specified (N-terminus)) [macrocyclic peptide B7-5, FAM-labelled] ; field requested: pKd
4.96
